EXPERIMENTAL DETAILS: Stability in human plasma
Assay type: in vitro ADME
TEST CONDITIONS: room temperature

STRUCTURE SMILES | Degradation in Human Plasma at RT
CC[C@H]1OC(=O)[C@H](C)[C@@H](O[C@H]2C[C@@](C)(OC)[C@@H](O)[C@H](C)O2)[C@H](C)[C@@H](O[C@@H]2O[C@H](C)C[C@H](N(C)C)[C@H]2O)[C@](C)(O)C[C@@H](C)CN(C)[C@H](C)[C@@H](O)[C@]1(C)O | 6 % per hour
CC[C@H]1OC(=O)[C@H](C)[C@@H](O)[C@H](C)[C@@H](O[C@@H]2O[C@H](C)C[C@H](N(C)C(=O)c3ccccc3)[C@H]2O)[C@](C)(O)C[C@@H](C)CN(C)[C@H](C)[C@@H](O)[C@]1(C)O | Stable
CC[C@H]1OC(=O)[C@H](C)[C@@H](O)[C@H](C)[C@@H](O[C@@H]2O[C@H](C)C[C@H](N(C)C)[C@H]2OC(=O)c2ccc3ccccc3c2)[C@](C)(O)C[C@@H](C)CN(C)[C@H](C)[C@@H](O)[C@]1(C)O | Stable
CC[C@H]1OC(=O)[C@H](C)[C@@H](O)[C@H](C)[C@@H](O[C@@H]2O[C@H](C)C[C@H](N(C)C)[C@H]2OC(=O)c2ccccc2)[C@](C)(O)C[C@@H](C)CN(C)[C@H](C)[C@@H](O)[C@]1(C)O | Stable
CC[C@H]1OC(=O)[C@H](C)[C@@H](O)[C@H](C)[C@@H](O[C@@H]2O[C@H](C)C[C@H](N(C)C)[C@H]2OC(=O)c2ccc(-c3ccc(S(C)(=O)=O)cc3)cc2)[C@](C)(O)C[C@@H](C)CN(C)[C@H](C)[C@@H](O)[C@]1(C)O | 2 % per hour
CC[C@H]1OC(=O)[C@H](C)[C@@H](O)[C@H](C)[C@@H](O[C@@H]2O[C@H](C)C[C@H](N(C)C(=O)Cc3ccccc3)[C@H]2O)[C@](C)(O)C[C@@H](C)CN(C)[C@H](C)[C@@H](O)[C@]1(C)O | 2 % per hour
CC[C@H]1OC(=O)[C@H](C)[C@@H](O)[C@H](C)[C@@H](O[C@@H]2O[C@H](C)C[C@H](N(C)C(=O)CNC(=O)OCc3ccccc3)[C@H]2O)[C@](C)(O)C[C@@H](C)CN(C)[C@H](C)[C@@H](O)[C@]1(C)O | Stable
CCc1ccc(C(=O)O[C@H]2[C@H](O[C@@H]3[C@@H](C)[C@H](O)[C@@H](C)C(=O)O[C@H](CC)[C@@](C)(O)[C@H](O)[C@@H](C)N(C)C[C@H](C)C[C@@]3(C)O)O[C@H](C)C[C@@H]2N(C)C)cc1 | Stable
